Reported TGI values follow for various compounds
- Tested on: RXF-631 renal
- Method Description: NCI tumour cell line growth inhibition, 48 h

A selection of reference data follows.
>  <Compound>
CC(C)(O)[C@@H]1CC[C@@]2(C)CCC[C@H](O)[C@H]2C1

>  <Reported Result>
> 100 µM

$$$$
>  <Compound>
C/C(CC(=O)Nc1ccc(Cl)cc1)=N\NC(=O)C[n+]1ccccc1

>  <Reported Result>
> 100 µM

$$$$
>  <Compound>
COc1ccc(OC)c(NCC#N)c1

>  <Reported Result>
> 100 µM

$$$$
>  <Compound>
CC(=O)OC1CC[C@@]2(C)C(CC[C@]3(C)C2CC=C2[C@@H]4CC(C)(C)CCC4(C)CCC23C)[C@@]1(C)C(=O)O (stereo not given in full)

>  <Reported Result>
44.7 µM

$$$$

Next up:
Record `Cc1ccc(-c2cc(=O)c3cc(C)c(C)c(C(=O)O)c3o2)cc1` . Reported TGI: > 100 µM
